- METHOD_DESCRIPTION: Cellular Toxicity (caspase-3) HepG2 (AID 654);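 note: cells exposed to compound for 16 hours before reading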
- CONDITION_NOTES: HepG2 caspase-3 activation, luminescence; series mostly up to 92.2 µM
Activity calls are given as the source filed them. Calls come from the whole dose curve; as a rule, active = well fitted activation curve with a large enough effect; inconclusive = small, poorly fitted or top-dose-only effect; inactive = flat fitted curve, though single readings scatter.
Respond only with the outcome that fits, drawn from active, inactive

>  <COMPOUND>
c1cc(OCC2CO2)cc(OCC2CO2)c1 (stereo not drawn)

>  <LABEL_VALUE>
inactive

$$$$

What outcome does the record of this test show for CN1[C@H]2CC(OC(=O)[C@H](CO)c3ccccc3)C[C@H]1[C@H]1O[C@H]12 (stereo partly drawn) ?
inactive

Which outcome was assigned to C=CC(=O)OCCOCCOC(=O)C=C in this test?
inactive

Short answer needed: outcome of this test for c1ccc2c(c1)-c1cccc3c1c-2cc1ccccc13 ?
inactive

Recorded call for CNc1ccc(O)cc1 ?
inactive

---

- Test system: AA1029
- METHOD_DESCRIPTION: qHTS profiling for inhibitors of Plasmodium falciparum proliferation (AID 504749); note: nearly all actives have a fitted effect of over 60% in size
- CONDITION_NOTES: P. falciparum in erythrocytes, SYBR Green DNA, 72 h; series mostly up to 28.7 µM
Results filed as inconclusive are left out. Active and inactive are the calls of the source. Calls follow the shape of the dose curve; as a rule, active = well fitted inhibition curve with a large enough effect; inconclusive = small, poorly fitted or top-dose-only effect; inactive = flat fitted curve, though single readings scatter.
Outcome field: choose from y (active), n (inactive)

>  <COMPOUND>
CC1OC(OCC2OC(Oc3c(-c4ccc(OCCO)c(OCCO)c4)oc4cc(OCCO)cc(O)c4c3=O)C(O)C(O)C2O)[C@@H](O)C(O)C1O (some centres not stated)

>  <LABEL_VALUE>
n

$$$$
>  <COMPOUND>
C[C@@H]1CC2C3CCC4=CC(=O)C=C[C@]4(C)[C@@]3(F)[C@@H](O)C[C@]2(C)[C@@]1(O)C(=O)COC(=O)c1cccc(S(=O)(=O)O)c1 (some centres not stated)

>  <LABEL_VALUE>
n

$$$$
>  <COMPOUND>
CCCCCCCCCCCCCCCC(=O)OC[C@H](O)[C@H]1OC[C@@H](O)[C@@H]1O

>  <LABEL_VALUE>
n

$$$$
>  <COMPOUND>
C[C@]12CC[C@@H]3c4ccc(O)cc4CC[C@H]3[C@@H]1CCC2OC(=O)CCC1CCCC1 (some centres not stated)

>  <LABEL_VALUE>
n

$$$$
>  <COMPOUND>
OCC1O[C@H](O[C@H]2C(O)C(O)C(O)O[C@@H]2CO)C(O)C(O)C1O (some centres not stated)

>  <LABEL_VALUE>
n

$$$$
>  <COMPOUND>
C[C@@H](O)[C@@H]1C(=O)N2C(C(=O)O)=C([C@H]3CCCO3)S[C@H]12

>  <LABEL_VALUE>
n

$$$$
>  <COMPOUND>
CC1CCC(C(C)C)C(O)C1 (configuration not stated)

>  <LABEL_VALUE>
n

$$$$
>  <COMPOUND>
CC(=O)NC1[C@H](O)C[C@@](O)(C(=O)O)O[C@H]1[C@H](O)[C@H](O)CO (some centres not stated)

>  <LABEL_VALUE>
n

$$$$

Which outcome was assigned to NC(=O)OC[C@@H]1[C@H](NC(=O)/C(=N/OCC(=O)O)c2csc(N)n2)C(=O)N1S(=O)(=O)O in this test?
n

For CCC(C(=O)O)C1OC(C(C)C(O)C(C)C(=O)C(CC)C2OC3(C=CC(O)C4(CCC(C)(C5CCC(O)(CC)C(C)O5)O4)O3)C(C)CC2C)C(C)CC1C (configuration not stated) , which call appears in the assay record?
y

Would you mind telling me which call this test gave CCCC[C@H](O)c1ccccc1 ?
n

Could you check what this test reported for O=[N+]([O-])O[C@H]1CO[C@H]2[C@@H]1OC[C@H]2O ?
n

src = PubChem BioAssay (NCATS)
